TESTED_ON: Cytochrome P450 1A2 (Homo sapiens, UniProt P05177)
Sequence (P05177 whole entry): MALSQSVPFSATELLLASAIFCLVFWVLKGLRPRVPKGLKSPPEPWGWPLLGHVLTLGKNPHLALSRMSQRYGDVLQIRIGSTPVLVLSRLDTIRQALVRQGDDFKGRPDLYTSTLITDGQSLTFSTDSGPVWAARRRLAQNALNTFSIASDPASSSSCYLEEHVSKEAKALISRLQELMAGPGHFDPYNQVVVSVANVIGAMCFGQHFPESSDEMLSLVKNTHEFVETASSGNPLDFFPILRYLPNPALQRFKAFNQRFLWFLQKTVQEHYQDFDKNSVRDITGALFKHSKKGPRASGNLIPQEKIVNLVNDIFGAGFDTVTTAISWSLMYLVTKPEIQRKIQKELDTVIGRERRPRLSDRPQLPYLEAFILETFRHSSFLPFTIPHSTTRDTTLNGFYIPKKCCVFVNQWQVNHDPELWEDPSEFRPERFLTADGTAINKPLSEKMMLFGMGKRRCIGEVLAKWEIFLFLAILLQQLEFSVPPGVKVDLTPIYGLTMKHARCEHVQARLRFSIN

{"columns": ["COMPOUND", "IC50"],
 "data": [
  ["Nc1nc2ccc(OC3CCOC3)nc2n1CC(O)c1ccc(C(F)(F)F)cc1Cl (racemic)", "> 30 µM"],
  ["CC(Oc1ccc2nc(N)n(CC(O)c3ccc(C(F)(F)F)cc3Cl)c2n1)C(F)(F)F (racemic)", "> 30 µM"],
  ["CN1CCN(c2ccc3nc(N)n(CC(O)c4ccc(C(F)(F)F)cc4Cl)c3n2)CC1 (racemic)", "> 30 µM"]
]}

###

ASSAY_TEXT: Selectivity index, ratio of IC50 for human A549 cells to IC50 for Plasmodium falciparum
Format: toxicity, cell-based
SETTINGS: read-out: Ratio IC50

{"columns": ["COMPOUND", "selectivity ratio"],
 "data": [
  ["Nc1nnc(C2CC2)n1CC(O)c1ccc(C(F)(F)F)cc1Cl (racemic)", "> 50"],
  ["Nc1nc2ccc(OC3CNC3)nc2n1CC(O)c1ccc(C(F)(F)F)cc1Cl (racemic)", "> 50"],
  ["Nc1nnnn1CC(O)c1c(Cl)cccc1Cl (racemic)", "> 50"],
  ["Nc1nccn1CC(O)c1ccc(Cl)cc1Cl (racemic)", "> 263"],
  ["CS(=O)(=O)c1ccc2nc(N)n(CC(O)c3cccc(Cl)c3Cl)c2c1 (racemic)", "> 50"],
  ["Nc1nc2ccc(C(=O)NC3CC3)nc2n1CC(O)c1ccc(Cl)cc1Cl (racemic)", "> 10"]
]}

###

List of IC50 values.
System: Plasmodium falciparum
ASSAY_TEXT: microbe, parasite or virus in culture
SETTINGS: NF54, 72 h

{"columns": ["COMPOUND", "IC50 [nM]"],
 "data": [
  ["Nc1nc(-c2ccc(F)cc2)cn1CC(O)c1ccc(C(F)(F)F)cc1Cl (racemic)", 140],
  ["Nc1nc(C2CC2)cn1CC(O)c1ccc(Cl)cc1Cl (racemic)", 120],
  ["CN1CCN(c2ccc3nc(N)n(CC(O)c4ccc(C(F)(F)F)cc4Cl)c3n2)CC1 (racemic)", 89]
]}
